The entries below are paired with their reported growth.
tested on: BT-549 breast; assay: NCI-60 one-dose screen, 48 h (100 = growth as untreated, 0 = no growth, -100 = all killed); conditions: 10 µM
The panel holds about 83,000 compounds, 20% with a hit somewhere; the sample as a whole holds those more often.
Report the figure in % without appending any unit label.

| substanceSmiles | u | endpointValue |
| --- | --- | --- |
| COc1cc(-c2cc(-c3cc4c([nH]c5ccccc54)c(-c4cc(OC)c(OC)c(OC)c4)n3)cc(-c3ccccc3)n2)cc(OC)c1OC | % | 66.6 |
| O=c1c2ccccc2nc(SCCN2CCCCC2)n1CCc1ccccc1 | % | 86.3 |
| C#Cc1ccc(-n2c(/C=C/c3ccc(Cl)c(F)c3)nc3ncccc3c2=O)cc1 | % | 10.7 |
| C/C(N)=C(\C#N)C(=O)c1ccccc1 | % | 113 |

Then there is this molecule:
[Q] Please look up its growth: "CN(C)C(=S)N/N=C\C=N/NC(=S)N(C)C"
[A] 81

Source: PubChem BioAssay (NCI)
